Reference source for all entries: patent US20240270821A1

Assay: in vivo
Set-up: species or system cynomolgus monkeys
Conditions: both sexes, cynomolgus monkey, po, 300 mg
Starred links: 1 amine or outer side, 2 acyl side, 3 side chain; linkers in the order of their positions; H or OH if unused. Non-standard residues stand in square brackets, D forms with d. Groups on a side chain read outwards from the residue. *: point of attachment. C18 diacid = O=C(O)CCCCCCCCCCCCCCCCC(=O)*; αMePhe(2-F) = C[C@](N)(Cc1ccccc1F)C(=O)O; γGlu = O=C(O)[C@H](CCC(=O)[*:2])N[*:1]; αMe4Pal = C[C@](N)(Cc1ccncc1)C(=O)O; αMeY = C[C@](N)(Cc1ccc(O)cc1)C(=O)O; 4Pal = N[C@@H](Cc1ccncc1)C(=O)O; αMeL = CC(C)C[C@](C)(N)C(=O)O; αMeS = C[C@](N)(CO)C(=O)O; Orn = NCCC[C@H](N)C(=O)O; AEEA = NCCOCCOCC(=O)O; Aib = CC(C)(N)C(=O)O
readout-type: AUC(0-inf) (µM·h)
Kindly answer with a numeric value in µM·h, unit omitted.

Recorded results for 7 substances are shown here.
| substance | AUC(0-inf) (µM·h) |
| --- | --- |
| H-Y[Aib]QGTFTSD[4Pal]SQ[αMeL]LDKK([γGlu-γGlu-C18 diacid])AQ[αMe4Pal]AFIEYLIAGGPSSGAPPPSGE-NH2 [Example 883] | 1.28 |
| H-Y[Aib]QGT[αMePhe(2-F)]TSD[4Pal][αMeS]I[αMeL]LD[Orn]K([AEEA-γGlu-C18 diacid])AQ[αMe4Pal]EFI[dE][αMeY]LIEGGPSSGAPPPSGGGE-NH2 [Example 741] | 4.2 |
| H-Y[Aib]QGT[αMePhe(2-F)]TSD[4Pal]SI[αMeL]LD[Orn]K([γGlu-γGlu-C18 diacid])AQ[αMe4Pal][Orn]FI[dE][αMeY]LIEGGPSSGEPPPETE-NH2 [Example 686] | 14.2 |
| H-Y[Aib]QGT[αMePhe(2-F)]TSD[4Pal][αMeS]ILLD[Orn]K([γGlu-γGlu-C18 diacid])AQ[Aib][Orn]FI[dE]YLIEGGPSSGEPPPSGTGE-NH2 [Example 548] | 3.58 |
| H-Y[Aib]QGT[αMePhe(2-F)]TSD[4Pal][αMeS]I[αMeL]LD[Orn]K([AEEA-γGlu-C18 diacid])AQ[αMe4Pal]EFI[dE][αMeY]LIEGGPSSGAPPPSGSE-NH2 [Example 712] | 6.18 |
| H-Y[Aib]QGT[αMePhe(2-F)]TSD[4Pal][αMeS]I[αMeL]LD[Orn]K([AEEA-γGlu-C18 diacid])AQ[αMe4Pal]EFI[dE][αMeY]LVEGGPSSGAPPPSGS-NH2 [Example 694] | 14.8 |
| H-Y[Aib]QGT[αMePhe(2-F)]TSD[4Pal]SILLDKK([γGlu-γGlu-C18 diacid])AQ[Aib]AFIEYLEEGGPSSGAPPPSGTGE-NH2 [Example 510] | 5.09 |

Field: next substance
Q: Would you kindly share the measured AUC(0-inf) for H-Y[Aib]QGTFTSD[4Pal]SQ[αMeL]LD[Orn]K([γGlu-γGlu-C18 diacid])AQ[αMe4Pal]AFIE[αMeY]LIEGGPSSGEPPPSGSEE-NH2 [Example 1027] ?
Ans: 5.07
